In this section we review reported TGI values for a set of compounds.
- System: SK-MEL-28 melanoma
- experimental protocol: NCI tumour cell line growth inhibition, 48 h

Could you share which TGI value was measured for CSC(C1c2ccccc2N(c2ccc(C)cc2)c2[nH]c(=O)n(C)c(=O)c21)S(=O)(=O)c1ccc(C)cc1 (stereo not drawn) ?
> 100 µM

====

Each item that follows carries a reported GI50.
- Tested on: MCF7 breast
- experimental protocol: NCI tumour cell line growth inhibition, 48 h

Some solved cases for reference:
| compound | test system | result |
| --- | --- | --- |
| O=C1CSC(c2ccc(Cl)cc2Cl)N1c1ccc(F)cc1 (configuration not stated) | MCF7 breast | 14 µM |
| COc1cccc(C#Cc2ccccc2C#CCCCCO)c1 | MCF7 breast | 16.1 µM |
| O=C(/C=C\c1ccc(NCc2ccc(C(=O)O)cc2)cc1)CCl | MCF7 breast | 4.26 µM |
| Nc1nc(F)nc2c1ncn2C1OC(CO)C(O)C1O (configuration not stated) | MCF7 breast | 26.3 µM |
| Cc1ccc2[nH]c(O)c(N=Nc3ccc(S(N)(=O)=O)cc3)c2c1 | MCF7 breast | 8.4 µM |

Requested field: GI50. Item: CCOc1cc(C(C)(C)C)ccc1C1=N[C@@](C)(c2ccc(Cl)cc2)[C@@](C)(c2ccc(Cl)cc2)N1C(=O)N1CCN(CCCS(C)(=O)=O)CC1
0.456 µM

Quick one: GI50 of O=C1Nc2ccc(F)cc2/C1=C/c1ccc[nH]1 ?
1.06 µM

====

Below, each of the compounds is paired with its reported TGI value.
- Test system: OVCAR-4 ovarian
- experimental protocol: NCI tumour cell line growth inhibition, 48 h

| compound | experimental endpoint | result |
| --- | --- | --- |
| CC(C)(Cl)C(Br)CCC(=CCCl)CBr (mixture of isomers) | TGI | 5.31 µM |
| O=C(O)[C@H](NS(=O)(=O)c1ccc([N+](=O)[O-])cc1)c1ccccc1 | TGI | > 100 µM |
| CCOC(=O)c1ccc(C)c(N=NN(C)C)c1 | TGI | > 100 µM |
| CN(CCC#N)c1ccc(/C=C(\C#N)c2ccc(Br)cc2)cc1 | TGI | > 100 µM |
| CCSc1nc(SCC)c2cn[nH]c2n1 | TGI | > 100 µM |

For OVCAR-4 ovarian, provide TGI of NNC(=O)CSc1nc2ccccc2c(=O)n1N please.
> 100 µM

====

- Tested on: MCF7 breast
- experimental protocol: NCI tumour cell line growth inhibition, 48 h
experimental endpoint: TGI

Past entries and their recorded results:
| compound | result |
| --- | --- |
| CSc1cnc2ccccc2c1SC1CN(Cc2ccccc2)c2ccccc2C1=O (stereo not given) | > 100 µM |
| O=C1O[C@H](c2ccc3c(c2)OCO3)[C@H]2CO[C@@H](c3ccc4c(c3)OCO4)[C@@H]12 | > 100 µM |
| CN1C2CCC1CC(C)(O)C2 (stereo not given) | > 100 µM |

Any idea what its TGI is? The compound is C[C@]12CC[C@@H]3c4cc(OCC(F)(F)F)c(O)cc4/C(=N/O)C[C@H]3[C@@H]1CC[C@@H]2O
33.9 µM

// lookup TGI for C[N+]12CCCCC1C(CN1C(=O)Cc3c4ccccc4c(c4ccccc34)CC1=O)CCC2 (stereo not given)
> 100 µM
